Hey, just so you know, these numbers are from ChEMBL document CHEMBL3400094.

- Test: Oral bioavailability in Sprague-Dawley rat at 2 to 10 mg/kg
- Assay type: ADME, organism-based
- Condition Details: in vivo
Readout Type: bioavailability (%)

P. C[C@H](Nc1ncnc(N)c1C#N)c1nc2ccc(F)cc2c(-c2ccccn2)c1-c1ccccn1
Q. CC(Nc1ncnc(N)c1C#N)c1nc2ccc(F)cc2c(O)c1-c1ccccc1 (racemic)
Q: Please state the entry with greater bioavailability among P and Q . # answer = label of selected item
Result: P
(P: 51%, Q: 15%)

* * *

- Test: Clearance in Sprague-Dawley rat at 0.5 mg/kg, iv and 2 to 10 mg/kg, po
- Format: ADME, organism-based
- Condition Details: in vivo
Readout Type: clearance (mL/min/kg)

{"Compound": "Cc1cccnc1-c1c(-c2ccccn2)c([C@H](C)Nc2ncnc(N)c2C#N)nc2ccc(F)cc12", "Readout Type": "clearance", "Reported Value": 3.5}
{"Compound": "CC(Nc1ncnc(N)c1C#N)c1nc2ccc(F)cc2c(O)c1-c1ccccc1 (racemic)", "Readout Type": "clearance", "Reported Value": 11.7}

I. C[C@H](Nc1ncnc(N)c1C#N)c1nc2ccc(F)cc2c(-c2ccccn2)c1-c1ccccn1
II. C[C@H](Nc1ncnc(N)c1C#N)c1nc2ccc(F)cc2c(S(C)(=O)=O)c1-c1ccccc1
Q: Two entries are listed, I and II . Which one carries the higher clearance? Give the chosen item's label as your response.
Result: II
